experiment: Drug uptake in C57bl/6j mouse brain without cerebellum at 20 mg/kg, po measured at 2 hrs post dose by LC/MS analysis; assay type: ADME, organism-based; conditions: C57BL/6J, brain without cerebellum, read-out: Drug uptake
Parameter measured: concentration at 2 h

Qu. Dear colleague, please send me the reported concentration at 2 h for C[C@@H](NC(=O)c1nn(-c2ccc(Cl)cc2Cl)c2c1CCCC/C2=C\c1ccc(F)cc1)c1ccccc1 when you can.
Ans. < 5 ng/mL

---

experiment: Drug uptake in C57bl/6j mouse plasma at 20 mg/kg, po measured at 2 hrs post dose by LC/MS analysis; format: ADME, organism-based
Could you please report measured log10 of concentration at 2 h for the items listed next?
Values below are the log10 of the recorded concentration at 2 h, with nM as the unit.

Qu. Tell me measured log10 of concentration at 2 h for O=C(NC1(c2ccccn2)CC1)c1nn(-c2ccc(Cl)c(Cl)c2)c2c1CCCC/C2=C\c1ccc(F)cc1 please.
Ans. 3.38

Qu. Look up log10 of concentration at 2 h of C[C@@H](NC(=O)c1nn(-c2ccc(Cl)cc2Cl)c2c1CCC/C2=C\c1ccc(F)cc1)c1ccccn1 and report it.
Ans. 3.19

Qu. # return recorded log10 of concentration at 2 h for entry O=C(NC1CCN(c2ccccn2)CC1)c1nn(-c2ccc(Cl)cc2Cl)c2c1CCC/C2=C\c1ccc(F)cc1
Ans. 3.18

Qu. Please give the documented log10 of concentration at 2 h of C[C@@H](NC(=O)c1nn(-c2ccc(Cl)cc2)c2c1CCC/C2=C\c1ccc(Cl)cn1)c1ccccn1
Ans. 3.47

Qu. Fill in log10 of concentration at 2 h for record C[C@@H](NC(=O)c1nn(-c2ccc(Cl)c(Cl)c2)c2c1CCCC/C2=C\c1ccc(C(F)(F)F)cc1)c1ccccn1
Ans. 3.68

Qu. # return recorded log10 of concentration at 2 h for input C[C@@H](NC(=O)c1nn(-c2ccc(Cl)c(Cl)c2)c2c1CCCC/C2=C\c1ccc(F)cc1)c1ccccn1
Ans. 3.21

Qu. For the compound C[C@@H](NC(=O)c1nn(-c2ccc(Cl)cc2Cl)c2c1CCCC/C2=C\c1ccc(Cl)cn1)c1ccccn1 , give its measured log10 of concentration at 2 h value.
Ans. 2.58

Source: ChEMBL document CHEMBL3862000
